# Test system: Enterococcus sp.
# testName: Antibacterial activity against Enterococcus sp. J 14365/08 after 48 hrs by microdilution broth method
# Assay type: functional
# details: J 14365/08, 48 h
# MIC per entry
measureName: MIC

* O=C(Nc1cccc(Cl)c1)c1ccc([N+](=O)[O-])cc1O | > 500 µM
* O=C(Nc1cccc(I)c1)c1ccc([N+](=O)[O-])cc1O | > 500 µM
* O=C(Nc1cccc([N+](=O)[O-])c1)c1ccc([N+](=O)[O-])cc1O | > 250 µM

* * *

# System: Candida tropicalis
# testName: Antifungal activity against Candida tropicalis 156 after 48 hrs by microdilution broth method
# Type: functional
# details: Candida tropicalis, 156, 48 h
# MIC per entry
measureName: MIC

- O=C(Nc1cccc(C(F)(F)F)c1)c1cc([N+](=O)[O-])ccc1O: > 500 µM
- O=C(Nc1cc(C(F)(F)F)cc(C(F)(F)F)c1)c1cc([N+](=O)[O-])ccc1O: > 500 µM
- O=C(Nc1cccc(Cl)c1)c1cc([N+](=O)[O-])ccc1O: > 500 µM
- O=C(Nc1cccc(F)c1)c1cc([N+](=O)[O-])ccc1O: > 500 µM
- O=C(Nc1cccc(Cl)c1)c1ccc([N+](=O)[O-])cc1O: > 500 µM
- O=C(Nc1cccc(I)c1)c1cc([N+](=O)[O-])ccc1O: 500 µM
- O=C(Nc1cccc(Br)c1)c1ccc([N+](=O)[O-])cc1O: > 500 µM
- O=C(Nc1cc(C(F)(F)F)cc(C(F)(F)F)c1)c1ccc([N+](=O)[O-])cc1O: > 500 µM
- O=C(Nc1cccc(Br)c1)c1cc([N+](=O)[O-])ccc1O: > 500 µM
- O=C(Nc1ccc(C(F)(F)F)cc1)c1cc([N+](=O)[O-])ccc1O: > 500 µM
- O=C(Nc1ccc([N+](=O)[O-])cc1)c1ccc([N+](=O)[O-])cc1O: > 500 µM
- O=C(Nc1cccc([N+](=O)[O-])c1)c1cc([N+](=O)[O-])ccc1O: > 250 µM
- O=C(Nc1ccc([N+](=O)[O-])c(C(F)(F)F)c1)c1cc([N+](=O)[O-])ccc1O: > 500 µM
- O=C(Nc1ccc([N+](=O)[O-])c(C(F)(F)F)c1)c1ccc([N+](=O)[O-])cc1O: > 500 µM
- O=C(Nc1ccc(Cl)c(Cl)c1)c1ccc([N+](=O)[O-])cc1O: > 250 µM
- O=C(Nc1ccc(C(F)(F)F)cc1)c1ccc([N+](=O)[O-])cc1O: 250 µM
- OC(Cn1cncn1)(Cn1cncn1)c1ccc(F)cc1F: > 500 µM
- O=C(Nc1cccc(C(F)(F)F)c1)c1ccc([N+](=O)[O-])cc1O: > 500 µM
- O=C(Nc1cccc([N+](=O)[O-])c1)c1ccc([N+](=O)[O-])cc1O: > 250 µM
- O=C(Nc1cccc(F)c1)c1ccc([N+](=O)[O-])cc1O: 500 µM
- O=C(Nc1ccc([N+](=O)[O-])cc1)c1cc([N+](=O)[O-])ccc1O: > 500 µM
- O=C(Nc1cccc(I)c1)c1ccc([N+](=O)[O-])cc1O: > 500 µM
- O=C(Nc1ccc(Cl)c(Cl)c1)c1cc([N+](=O)[O-])ccc1O: > 500 µM

* * *

# System: Mycobacterium kansasii
# testName: Antimycobacterial activity against Mycobacterium kansasii 6509/96 after 14 days
# Type: functional
# details: 6509/96, 336 h
measureName: log10 MIC (log10 of the value in µM)

- O=C(Nc1cc(C(F)(F)F)cc(C(F)(F)F)c1)c1ccc([N+](=O)[O-])cc1O: 1.20
- O=C(Nc1ccc(C(F)(F)F)cc1)c1cccc([N+](=O)[O-])c1O: 1.80
- O=C(Nc1cccc(F)c1)c1cc([N+](=O)[O-])ccc1O: 1.80
- O=C(Nc1cccc(C(F)(F)F)c1)c1cccc([N+](=O)[O-])c1O: 2.40
- O=C(Nc1ccc(C(F)(F)F)cc1)c1cc([N+](=O)[O-])ccc1O: 1.51
- O=C(Nc1cccc(Cl)c1)c1cccc([N+](=O)[O-])c1O: 2.10
- O=C(Nc1cccc(C(F)(F)F)c1)c1cc([N+](=O)[O-])ccc1O: 1.80
- O=C(Nc1cccc(Br)c1)c1cccc([N+](=O)[O-])c1O: 2.10
- O=C(Nc1cccc([N+](=O)[O-])c1)c1cc([N+](=O)[O-])ccc1O: 2.10
- O=C(Nc1cccc(Cl)c1)c1cc([N+](=O)[O-])ccc1O: 1.80
- O=C(Nc1cccc(C(F)(F)F)c1)c1ccc([N+](=O)[O-])cc1O: 1.20
- O=C(Nc1cccc(Br)c1)c1ccc([N+](=O)[O-])cc1O: 1.20
- O=C(Nc1cccc(Br)c1)c1cc([N+](=O)[O-])ccc1O: 1.80
- O=C(Nc1cc(C(F)(F)F)cc(C(F)(F)F)c1)c1cc([N+](=O)[O-])ccc1O: 1.51
- O=C(Nc1cccc(Cl)c1)c1ccc([N+](=O)[O-])cc1O: 1.20
- O=C(Nc1cccc(I)c1)c1ccc([N+](=O)[O-])cc1O: 1.20
- O=C(Nc1cccc(F)c1)c1ccc([N+](=O)[O-])cc1O: 1.51
- O=C(Nc1ccc([N+](=O)[O-])c(C(F)(F)F)c1)c1cc([N+](=O)[O-])ccc1O: 1.80
- O=C(Nc1cccc([N+](=O)[O-])c1)c1ccc([N+](=O)[O-])cc1O: 1.51
- O=C(Nc1cccc(F)c1)c1cccc([N+](=O)[O-])c1O: 2.40
- O=C(Nc1ccc([N+](=O)[O-])c(C(F)(F)F)c1)c1cccc([N+](=O)[O-])c1O: 1.80

* * *

# Test system: Enterococcus sp.
# testName: Antibacterial activity against Enterococcus sp. J 14365/08 after 48 hrs by microdilution broth method
# Assay type: functional
# details: J 14365/08, 48 h
measureName: MIC (µM)

* O=C(Nc1ccc(Cl)c(Cl)c1)c1cc([N+](=O)[O-])ccc1O | 125
* O=C(Nc1ccc(C(F)(F)F)cc1)c1ccc([N+](=O)[O-])cc1O | 250
* CC1(C)S[C@@H]2[C@H](NC(=O)Cc3ccccc3)C(=O)N2[C@H]1C(=O)O | 15.6
* O=C(Nc1cccc(Br)c1)c1ccc([N+](=O)[O-])cc1O | 500
* O=C(Nc1ccc([N+](=O)[O-])c(C(F)(F)F)c1)c1ccc([N+](=O)[O-])cc1O | 500
* O=C(Nc1cc(C(F)(F)F)cc(C(F)(F)F)c1)c1cc([N+](=O)[O-])ccc1O | 500

* * *

# Tested on: Lichtheimia corymbifera
# testName: Antifungal activity against Absidia corymbifera 272 after 48 hrs by microdilution broth method
# Type: functional
# details: Lichtheimia corymbifera, 272, 48 h
# MIC per entry
measureName: MIC

- O=C(Nc1cc(C(F)(F)F)cc(C(F)(F)F)c1)c1cc([N+](=O)[O-])ccc1O: > 500 µM
- O=C(Nc1ccc(Cl)c(Cl)c1)c1ccc([N+](=O)[O-])cc1O: 31.2 µM
- O=C(Nc1cccc(Br)c1)c1cc([N+](=O)[O-])ccc1O: 500 µM
- O=C(Nc1cccc(C(F)(F)F)c1)c1ccc([N+](=O)[O-])cc1O: > 500 µM
- O=C(Nc1cccc(F)c1)c1cc([N+](=O)[O-])ccc1O: > 500 µM
- O=C(Nc1cccc(I)c1)c1ccc([N+](=O)[O-])cc1O: > 500 µM
- O=C(Nc1ccc([N+](=O)[O-])c(C(F)(F)F)c1)c1cc([N+](=O)[O-])ccc1O: > 500 µM
- O=C(Nc1ccc(Cl)c(Cl)c1)c1cc([N+](=O)[O-])ccc1O: > 500 µM

* * *

# Test system: Lichtheimia corymbifera
# testName: Antifungal activity against Absidia corymbifera 272 after 48 hrs by microdilution broth method
# Assay type: functional
# details: Lichtheimia corymbifera, 272, 48 h
# MIC per entry
measureName: MIC (µM)

* O=C(Nc1cccc(Cl)c1)c1ccc([N+](=O)[O-])cc1O | 250
* O=C(Nc1cccc(C(F)(F)F)c1)c1cc([N+](=O)[O-])ccc1O | 500
* O=C(Nc1cccc(F)c1)c1ccc([N+](=O)[O-])cc1O | 250
* O=C(Nc1ccc(C(F)(F)F)cc1)c1cc([N+](=O)[O-])ccc1O | 500

* * *

# Tested on: Mycobacterium avium
# testName: Antimycobacterial activity against Mycobacterium avium 330/80 after 14 days
# Assay type: functional
# details: 330/80, 336 h
measureName: log10(MIC) (log10 of the value in µM)

• O=C(Nc1ccc([N+](=O)[O-])c(C(F)(F)F)c1)c1ccc([N+](=O)[O-])cc1O = 1.80
• O=C(Nc1cc(C(F)(F)F)cc(C(F)(F)F)c1)c1cccc([N+](=O)[O-])c1O = 2.10
• O=C(Nc1cccc(I)c1)c1ccc([N+](=O)[O-])cc1O = 1.51
• O=C(Nc1ccc([N+](=O)[O-])cc1)c1cccc([N+](=O)[O-])c1O = 2.10
• O=C(Nc1ccc(Cl)c(Cl)c1)c1cc([N+](=O)[O-])ccc1O = 2.10
• O=C(Nc1cccc(C(F)(F)F)c1)c1cc([N+](=O)[O-])ccc1O = 2.10
• O=C(Nc1cccc(I)c1)c1cc([N+](=O)[O-])ccc1O = 2.10
• O=C(Nc1ccc([N+](=O)[O-])cc1)c1cc([N+](=O)[O-])ccc1O = 2.40
• O=C(Nc1ccc(C(F)(F)F)cc1)c1cccc([N+](=O)[O-])c1O = 2.40
• O=C(Nc1cccc(F)c1)c1cc([N+](=O)[O-])ccc1O = 2.10
• O=C(Nc1cc(C(F)(F)F)cc(C(F)(F)F)c1)c1cc([N+](=O)[O-])ccc1O = 1.51
• O=C(Nc1cccc(F)c1)c1ccc([N+](=O)[O-])cc1O = 1.80
• O=C(Nc1cccc(Br)c1)c1cccc([N+](=O)[O-])c1O = 2.40
• O=C(Nc1cccc(I)c1)c1cccc([N+](=O)[O-])c1O = 2.70
• O=C(Nc1cccc(Cl)c1)c1cccc([N+](=O)[O-])c1O = 2.70
• O=C(Nc1ccc(Cl)c(Cl)c1)c1ccc([N+](=O)[O-])cc1O = 1.51
• O=C(Nc1cccc(Br)c1)c1ccc([N+](=O)[O-])cc1O = 1.51
• O=C(Nc1cccc(Br)c1)c1cc([N+](=O)[O-])ccc1O = 2.10
• O=C(Nc1cccc([N+](=O)[O-])c1)c1ccc([N+](=O)[O-])cc1O = 2.10
• O=C(Nc1ccc(Cl)c(Cl)c1)c1cccc([N+](=O)[O-])c1O = 2.40
• O=C(Nc1cccc(Cl)c1)c1ccc([N+](=O)[O-])cc1O = 1.51
• O=C(Nc1ccc([N+](=O)[O-])cc1)c1ccc([N+](=O)[O-])cc1O = 1.80
• O=C(Nc1ccc([N+](=O)[O-])c(C(F)(F)F)c1)c1cccc([N+](=O)[O-])c1O = 2.40
• O=C(Nc1cc(C(F)(F)F)cc(C(F)(F)F)c1)c1ccc([N+](=O)[O-])cc1O = 1.51
• O=C(Nc1cccc(C(F)(F)F)c1)c1cccc([N+](=O)[O-])c1O = 2.70
• O=C(Nc1ccc(C(F)(F)F)cc1)c1ccc([N+](=O)[O-])cc1O = 1.51
• O=C(Nc1cccc(F)c1)c1cccc([N+](=O)[O-])c1O = 2.70
• O=C(Nc1cccc(Cl)c1)c1cc([N+](=O)[O-])ccc1O = 2.10
• O=C(Nc1ccc(C(F)(F)F)cc1)c1cc([N+](=O)[O-])ccc1O = 1.80
• O=C(Nc1cccc(C(F)(F)F)c1)c1ccc([N+](=O)[O-])cc1O = 1.80
• O=C(Nc1cccc([N+](=O)[O-])c1)c1cc([N+](=O)[O-])ccc1O = 2.10
• O=C(Nc1ccc([N+](=O)[O-])c(C(F)(F)F)c1)c1cc([N+](=O)[O-])ccc1O = 2.10
